- assay_name: absolute recovery over mixed-bed multilayer solid-phase extraction; higher = better recovery
- condition_set: nanopure water; enrichment method: SPE
absolute recovery listing for selected compounds.

[
  {
    "compound": "O=C([O-])C(c1ccccc1Cl)[NH+]1CCc2sccc2C1 (stereo not drawn)",
    "absolute recovery (%)": 93.2
  },
  {
    "compound": "O=C(Nc1ccccc1)N(Cc1ccc(Cl)cc1)C1CCCC1",
    "absolute recovery (%)": 84.2
  },
  {
    "compound": "O=C(Nc1ccccc1-c1ccc(Cl)cc1)c1cccnc1Cl",
    "absolute recovery (%)": 102
  },
  {
    "compound": "CC(C)(C)Nc1nc(N)nc(O)n1 [Terbutylazin-desethyl-2-hydroxy]",
    "absolute recovery (%)": 89.9
  },
  {
    "compound": "CCNc1nc(Cl)nc(NCC)n1",
    "absolute recovery (%)": 94.2
  },
  {
    "compound": "O=C(Nc1ccc(F)cc1F)c1cccnc1Oc1cccc(C(F)(F)F)c1",
    "absolute recovery (%)": 96.6
  },
  {
    "compound": "CC[NH+](CC)CC#CCOC(=O)C(O)(c1ccccc1)C1CCCCC1 (stereo not drawn)",
    "absolute recovery (%)": 92.8
  },
  {
    "compound": "CC(=O)Nc1ccc(S(=O)(=O)[N-]c2nc(C)cc(C)n2)cc1",
    "absolute recovery (%)": 86.9
  },
  {
    "compound": "Cc1ccc(C(C)NC(=O)C(NC(=O)OC(C)C)C(C)C)cc1 (stereo not drawn)",
    "absolute recovery (%)": 96.4
  },
  {
    "compound": "CC(=O)NCC1CN(c2ccc(N3CCOCC3)c(F)c2)C(=O)O1 (stereo not drawn)",
    "absolute recovery (%)": 92.3
  },
  {
    "compound": "Cc1ncc2n1-c1ccc(Cl)cc1C(c1ccccc1F)=NC2",
    "absolute recovery (%)": 87.5
  },
  {
    "compound": "CC(C)c1nc(CN(C)C(=O)NC(C(=O)NC(Cc2ccccc2)CC(O)C(Cc2ccccc2)NC(=O)OCc2cncs2)C(C)C)cs1 (stereo not drawn)",
    "absolute recovery (%)": 85.2
  },
  {
    "compound": "C[NH+](C)CCC=C1c2ccccc2CCc2ccccc21",
    "absolute recovery (%)": 84.5
  },
  {
    "compound": "O=c1[nH]sc2ccccc12",
    "absolute recovery (%)": 79.3
  },
  {
    "compound": "O=C(Nc1ccc(Cl)cc1)Nc1ccc(Cl)c(Cl)c1",
    "absolute recovery (%)": 57.9
  },
  {
    "compound": "c1ccc2c(c1)Cc1ccccc1N1CC[NH2+]CC21 (stereo not drawn)",
    "absolute recovery (%)": 79.1
  },
  {
    "compound": "COCCN(C(=O)C(=O)[O-])c1c(C)cccc1C",
    "absolute recovery (%)": 96.8
  },
  {
    "compound": "COCC(C)N(C(=O)C(=O)[O-])c1c(C)csc1C (stereo not drawn)",
    "absolute recovery (%)": 96.4
  },
  {
    "compound": "CCS(=O)(=O)c1cccnc1S(=O)(=O)[N-]C(=O)Nc1nc(OC)cc(OC)n1",
    "absolute recovery (%)": 127
  },
  {
    "compound": "COc1ccc2c(c1)c(CC(=O)OCC(=O)[O-])c(C)n2C(=O)c1ccc(Cl)cc1",
    "absolute recovery (%)": 76.1
  },
  {
    "compound": "[NH3+]C(CC(=O)N1CCn2c(nnc2C(F)(F)F)C1)Cc1cc(F)c(F)cc1F (stereo not drawn)",
    "absolute recovery (%)": 53.8
  },
  {
    "compound": "C[NH+](C)CCC=C1c2ccccc2COc2ccc(CC(=O)[O-])cc21",
    "absolute recovery (%)": 82.8
  },
  {
    "compound": "CCN(CC)C(=O)c1cccc(C)c1",
    "absolute recovery (%)": 86.9
  },
  {
    "compound": "CC(C)N(C(=O)CS(=O)(=O)[O-])c1ccc(F)cc1",
    "absolute recovery (%)": 89.4
  },
  {
    "compound": "COc1c(Cl)ccc(Cl)c1C(=O)[O-]",
    "absolute recovery (%)": 95.6
  },
  {
    "compound": "COC(=O)c1csc(C)c1S(=O)(=O)[N-]C(=O)n1nc(OC)n(C)c1=O",
    "absolute recovery (%)": 104
  },
  {
    "compound": "CCOC(=O)C1=NN(c2ccc(Cl)cc2Cl)C(C)(C(=O)OCC)C1 (stereo not drawn)",
    "absolute recovery (%)": 98
  },
  {
    "compound": "CCCCCC(C)OC(=O)COc1ccc(Cl)c2cccnc12 (stereo not drawn)",
    "absolute recovery (%)": 56.8
  }
]
